This collection of values is drawn from patent US9212151B2.

Test: MTT cell viability assay, compounds at 5, 1 and 0.2 μM, 48 hours
Type: cell-based
Conditions: human, A549 tumor cells, 5 μM compound
quantity.kind: viability at 48 h, 5 µM

As a guide, the following entries are already answered.
given.smiles	viability at 48 h, 5 µM
COc1ccc2c(Oc3ccc(Nc4nnc(-c5cccc(Cl)c5)[nH]4)cc3)ccnc2c1	> 70%
COc1ccc2c(Oc3ccc(-c4cnc(Nc5cccc(C(F)(F)F)c5)[nH]4)cc3)ccnc2c1	> 70%
COc1ccc2c(Oc3cc(-c4nnc(Nc5cccc(C(F)(F)F)c5)[nH]4)ccc3C)ccnc2c1	> 70%
CSc1nc(N)cc(Oc2ccc(-c3cnc(Nc4cccc(C(F)(F)F)c4)[nH]3)cc2)n1	< 50%

Quick check: viability at 48 h, 5 µM of CN(C)c1cc(Oc2ccc(-c3nnc(Nc4cccc(C(F)(F)F)c4)[nH]3)cc2)c2ccccc2n1 ?
50 to 70%

###

Would you kindly list viability at 48 h, 5 µM for each of these compounds?
Experiment: MTT cell viability assay, compounds at 5, 1 and 0.2 μM, 48 hours
Format: cell-based
Settings: human, A549 tumor cells, 5 μM

As a guide, the following entries are already answered.
compound	viability at 48 h, 5 µM
CSc1nc(N)cc(Oc2ccc(-c3nnc(Nc4cccc(C(F)(F)F)c4)[nH]3)c(F)c2)n1 [Compound 107]	50 to 70%
Cc1nc(C(F)(F)F)nc(Oc2ccc(-c3nnc(Nc4cccc(C(F)(F)F)c4)[nH]3)cc2)c1C [Compound 157]	> 70%
FC(F)(F)c1cccc(Nc2nnc(-c3cccc(Oc4ncnc5[nH]ccc45)c3)o2)c1 [Compound 60]	> 70%
CSc1nc(N)cc(Sc2ccc(-c3nnc(Nc4cccc(C(F)(F)F)c4)[nH]3)cc2)n1 [Compound 119]	< 50%
FC(F)(F)c1cccc(Nc2nnc(-c3cccc(Oc4nccc5ccccc45)c3)[nH]2)c1 [Compound 166]	> 70%

Look at each compound and report its viability at 48 h, 5 µM.
1. Nc1cc(Oc2ccc(-c3nnc(Nc4cccc(C(F)(F)F)c4)[nH]3)cc2)nc(NCCO)n1 [Compound 61]
2. COc1ccc2nccc(Oc3ccc(-c4nnc(Nc5cccc(C(F)(F)F)c5)[nH]4)cc3)c2c1 [Compound 185]
3. FC(F)(F)c1cccc(Nc2nnc(-c3ccc(Oc4ccnc5ccccc45)cc3)[nH]2)c1 [Compound 12]
4. CN(C)c1cc(Oc2ccc(-c3nnc(Nc4cccc(C(F)(F)F)c4)[nH]3)cc2)c2ccccc2n1 [Compound 190]
5. CSc1nc(N)cc(Oc2cccc(-c3nnc(Nc4cccc(C(F)(F)F)c4)s3)c2)n1 [Compound 48]
6. [2H]C([2H])([2H])Oc1cc(Oc2ccc(-c3nnc(Nc4cccc(C(F)(F)F)c4)[nH]3)cc2)nc(N)n1 [Compound 142]
7. CSc1nc(N)cc(Oc2ccc(-c3nnc(Nc4ccc(F)c(C(F)(F)F)c4)[nH]3)cc2)n1 [Compound 105]
8. Nc1nccc(Oc2ccc(-c3nnc(Nc4cccc(C(F)(F)F)c4)[nH]3)cc2)n1 [Compound 1]

1. > 70%
2. > 70%
3. 50 to 70%
4. 50 to 70%
5. > 70%
6. > 70%
7. < 50%
8. 50 to 70%

###

Experiment: MTT cell viability assay, compounds at 5, 1 and 0.2 μM, 48 hours
Format: cell-based
Conditions: human, A549 tumor cells, 5 μM
Would you kindly list viability at 48 h, 5 µM for each of these compounds?

As a guide, the following entries are already answered.
compound	value.measured
CCCNc1cc(Oc2ccc(-c3nnc(Nc4cccc(C(F)(F)F)c4)[nH]3)cc2)nc(SC)n1 [Compound 144]	50 to 70%
FC(F)(F)c1cccc(Nc2nnc(-c3ccc(Oc4cncnc4)cc3)[nH]2)c1 [Compound 83]	> 70%
COc1ccc2c(Oc3cccc(-c4nnc(Nc5cccc(C(F)(F)F)c5)o4)c3)ccnc2c1 [Compound 41]	> 70%
CSc1nc(N)cc(Oc2ccc(Nc3nnc(-c4cccc(C(F)(F)F)c4)[nH]3)cc2)n1 [Compound 176]	> 70%

Look at each compound and report its viability at 48 h, 5 µM.
1. CSc1nc(N)cc(Oc2cccc(-c3nnc(Nc4cccc(C(F)(F)F)c4)o3)c2)n1 [Compound 36]
2. COc1nccc(Oc2ccc(-c3nnc(Nc4cccc(C(F)(F)F)c4)[nH]3)cc2)n1 [Compound 71]
3. CSc1nc(N)cc(Oc2ccc(-c3nnc(Nc4ccccc4C)[nH]3)cc2)n1 [Compound 154]
4. Nc1cc(Oc2ccc(-c3nnc(Nc4cccc(C(F)(F)F)c4)o3)cc2)nc(N)n1 [Compound 24]

1: > 70%; 2: 50 to 70%; 3: < 50%; 4: > 70%

###

Assay: MTT cell viability assay, compounds at 5, 1 and 0.2 μM, 48 hours
Type: cell-based
Conditions: human, A549 tumor cells, 1 μM
Would you kindly list viability at 48 h, 1 µM for each of these compounds?

As a guide, the following entries are already answered.
given.smiles	viability at 48 h, 1 µM
CCc1nc(N)cc(Oc2cccc(-c3nnc(Nc4cccc(C(F)(F)F)c4)[nH]3)c2)n1	> 70%
Nc1cc(Oc2ccc(-c3nnc(Nc4cccc(C(F)(F)F)c4)[nH]3)cc2)nc(SCC(=O)O)n1	> 70%
FC(F)(F)c1cccc(Nc2nnc(-c3cccc(Oc4cncnc4)c3)[nH]2)c1	> 70%
Fc1ccc2c(Oc3cccc(-c4nnc(Nc5cccc(C(F)(F)F)c5)[nH]4)c3)ccnc2c1	> 70%
Nc1nccc(Oc2ccc(-c3nnc(Nc4cccc(C(F)(F)F)c4)[nH]3)cc2)n1	50 to 70%

Look at each compound and report its viability at 48 h, 1 µM.
1. COc1nc(Oc2cccc(-c3nnc(Nc4cccc(C(F)(F)F)c4)[nH]3)c2)c2cc[nH]c2n1
2. CSc1nc(N)cc(Oc2ccc(-c3nnc(Nc4ccc5c(c4)-c4ccccc4C5)[nH]3)cc2)n1
3. [2H]C([2H])([2H])Oc1cc(Oc2ccc(-c3nnc(Nc4cccc(C(F)(F)F)c4)[nH]3)cc2)nc(N)n1
4. CSc1nc(N)cc(Oc2ccc(-c3nnc(Nc4cccc(C(=O)O)c4)[nH]3)cc2)n1
5. COc1cc(-c2nnc(Nc3cccc(C(F)(F)F)c3)[nH]2)ccc1Oc1ccncc1

["> 70%", "50 to 70%", "> 70%", "> 70%", "> 70%"]

Look at each compound and report its viability at 48 h, 1 µM.
1. Nc1cc(F)cc(Oc2ccc(-c3nnc(Nc4cccc(C(F)(F)F)c4)[nH]3)cc2)c1
2. COc1cc(Oc2ccc(-c3nnc(Nc4cccc(C(F)(F)F)c4)[nH]3)cc2)ncn1
3. CC(C)(C)Sc1nc(N)cc(Oc2cccc(-c3nnc(Nc4cccc(C(F)(F)F)c4)[nH]3)c2)n1
4. Nc1cc(Oc2cccc(-c3nnc(Nc4cccc(C(F)(F)F)c4)[nH]3)c2)c2ccccc2n1
5. CSc1nc(N)cc(Oc2ccc(-c3nnc(Nc4ccc(Cl)c(C(F)(F)F)c4)[nH]3)cc2)n1
6. CSc1nc(N)cc(Oc2ccc(-c3nnc(Nc4cccc(C(F)(F)F)c4)o3)cc2)n1

> 70%
> 70%
> 70%
> 70%
> 70%
< 50%

###

Assay: MTT cell viability assay, compounds at 5, 1 and 0.2 μM, 48 hours
Format: cell-based
Details: human, A549 tumor cells, 1 μM
Would you kindly list viability at 48 h, 1 µM for each of these compounds?

As a guide, the following entries are already answered.
compound	viability at 48 h, 1 µM
FC(F)(F)c1cccc(Nc2nnc(-c3ccc(Oc4cncnc4)cc3)[nH]2)c1 [Compound 83]	> 70%
Cc1nccc(Oc2ccc(-c3nnc(Nc4cccc(C(F)(F)F)c4)[nH]3)cc2)n1 [Compound 51]	50 to 70%
FC(F)(F)c1cccc(Nc2nnc(-c3ccc(Oc4ccncc4)cc3)o2)c1 [Compound 29]	> 70%
Nc1nccc(Oc2cccc(-c3nnc(Nc4cccc(C(F)(F)F)c4)[nH]3)c2)n1 [Compound 15]	> 70%
FC(F)(F)c1cccc(Nc2nnc(-c3cccc(Oc4cncc5ccccc45)c3)[nH]2)c1 [Compound 164]	> 70%
CSc1nc(N)cc(Oc2ccc(-c3nnc(Nc4cc(C(C)(C)C)nn4-c4cccc(C)c4)[nH]3)cc2)n1 [Compound 139]	> 70%
CCOc1nc(N)cc(Oc2ccc(-c3nnc(Nc4cccc(C(F)(F)F)c4)[nH]3)cc2)n1 [Compound 79]	< 50%

Okay, next one:
Quick check: viability at 48 h, 1 µM of Nc1cc(Oc2cccc(-c3nnc(Nc4cccc(C(F)(F)F)c4)o3)c2)nc(N)n1 [Compound 35] ?
> 70%

###

Would you kindly list viability at 48 h, 5 µM for each of these compounds?
Experiment: MTT cell viability assay, compounds at 5, 1 and 0.2 μM, 48 hours
Type: cell-based
Settings: human, A549 tumor cells, 5 μM

compound	quantity.kind	value.measured
CCc1cc(Oc2cccc(-c3nnc(Nc4cccc(C(F)(F)F)c4)[nH]3)c2)nc(N)n1 [Compound 94]	viability at 48 h, 5 µM	50 to 70%

Look at each compound and report its viability at 48 h, 5 µM.
1. COc1cc(-c2nnc(Nc3cccc(C(F)(F)F)c3)[nH]2)ccc1Oc1ccncc1 [Compound 108]
2. FC(F)(F)c1cccc(Nc2nnc(-c3ccc(Oc4cncc5ccccc45)cc3)[nH]2)c1 [Compound 146]
3. FC(F)(F)c1cccc(Nc2nnc(-c3ccc(Oc4ncnc5[nH]ccc45)cc3)s2)c1 [Compound 45]
4. FC(F)(F)c1cccc(Nc2nnc(-c3cccc(Oc4ncnc5[nH]ccc45)c3)[nH]2)c1 [Compound 21]
5. Oc1ccc(Nc2nnc(-c3cccc(C(F)(F)F)c3)[nH]2)cc1 [Compound 181]
6. FC(F)(F)c1cccc(Nc2nnc(-c3ccc(Oc4ccncc4C(F)(F)F)cc3)[nH]2)c1 [Compound 8]

["< 50%", "< 50%", "< 50%", "> 70%", "> 70%", "50 to 70%"]

Look at each compound and report its viability at 48 h, 5 µM.
1. Cc1cc(Oc2cccc(-c3nnc(Nc4cccc(C(F)(F)F)c4)[nH]3)c2)c2ccccc2n1 [Compound 168]
2. COCCOc1cc(Oc2ccc(-c3nnc(Nc4cccc(C(F)(F)F)c4)[nH]3)cc2)nc(N)n1 [Compound 53]
3. CC(=O)NCCSc1nc(N)cc(Oc2ccc(-c3nnc(Nc4cccc(C(F)(F)F)c4)[nH]3)cc2)n1 [Compound 114]

1. 50 to 70%
2. < 50%
3. > 70%

Look at each compound and report its viability at 48 h, 5 µM.
1. Cc1ccc2nccc(Oc3cccc(-c4nnc(Nc5cccc(C(F)(F)F)c5)[nH]4)c3)c2c1 [Compound 172]
2. CCc1cccc(Nc2nnc(-c3ccc(Oc4cc(N)nc(SC)n4)cc3)[nH]2)c1 [Compound 122]
3. FC(F)(F)c1cccc(Nc2nnc(-c3ccc(Oc4nccc5ccccc45)cc3)[nH]2)c1 [Compound 149]
4. Oc1ccc(Nc2nnc(-c3cccc(Cl)c3)[nH]2)cc1 [Compound 182]
5. COc1ccc2c(Oc3ccc(Nc4nnc(-c5cccc(C(F)(F)F)c5)[nH]4)cc3)ccnc2c1 [Compound 175]
6. FC(F)(F)c1cccc(Nc2nnc(-c3ccc(Oc4ccnc5cc(C(F)(F)F)ccc45)cc3)[nH]2)c1 [Compound 148]

1: 50 to 70%; 2: < 50%; 3: 50 to 70%; 4: > 70%; 5: > 70%; 6: > 70%
